biological target: HLA-A*02 (Homo sapiens, UniProt P04439, D140Y/D185E/D98H/E176V/E277Q/G131W/G231S/I119V/I121R/I166T/I218V/L300P/N151K/N90K/P208A/P217A/Q86G/Q94H/R138H/R169H); construct: made in house; assay: MHC binding assay, UV-ligand exchange with beta2m ELISA (peptide exchange yield); conditions: binding to HLA-A*02
observed-property: Peptide exchange (MHC class I binding score, peptide exchange yield)

Before answering, review these 4 worked examples.
{"substance": "133 (ALLPRLHQL; listed as Homo sapiens) [compound 133]", "value-measured": "++++ (> = 75% = ++++)"}
{"substance": "37 (ILAPFSVDL; listed as Homo sapiens) [compound 37]", "value-measured": "+++ (50%-75% = +++)"}
{"substance": "66 (KLIFSVEAV; listed as Homo sapiens) [compound 66]", "value-measured": "+++ (50%-75% = +++)"}
{"substance": "70 (LLLGDSALYL; listed as Homo sapiens) [compound 70]", "value-measured": "+++ (50%-75% = +++)"}

Entry 153 (FISERVEVV; listed as Homo sapiens) [compound 153] — recorded Peptide exchange (MHC class I binding score, peptide exchange yield) = ++++ (> = 75% = ++++)

Entry 47 (ALLERGELFV; listed as Homo sapiens) [compound 47] — recorded Peptide exchange (MHC class I binding score, peptide exchange yield) = +++ (50%-75% = +++)

Entry 32 (VQLDSIEDLEV; listed as Homo sapiens) [compound 32] — recorded Peptide exchange (MHC class I binding score, peptide exchange yield) = +++ (50%-75% = +++)

Entry 236 (STIAILNSV; listed as Homo sapiens) [compound 236] — recorded Peptide exchange (MHC class I binding score, peptide exchange yield) = +++ (50%-75% = +++)

Entry 11 (ALSPSYLTV; listed as Homo sapiens) [compound 11] — recorded Peptide exchange (MHC class I binding score, peptide exchange yield) = +++ (50%-75% = +++)

Entry 258 (LLSERFINV; listed as Homo sapiens) [compound 258] — recorded Peptide exchange (MHC class I binding score, peptide exchange yield) = ++++ (> = 75% = ++++)

Entry 99 (YLLQSVNQLLL; listed as Homo sapiens) [compound 99] — recorded Peptide exchange (MHC class I binding score, peptide exchange yield) = ++ (20%-49% = ++)

Entry 1 (LLYPEPWSV; listed as Homo sapiens) [compound 1] — recorded Peptide exchange (MHC class I binding score, peptide exchange yield) = ++++ (> = 75% = ++++)

These entries and their values trace back to patent US10143730B2.
